Below, each entry is listed alongside its reported pIC50.
# TEST_SUMMARY: ABTS radical cation scavenging assay
# REPORTED_CONDITIONS: 50% reduction of ABTS radical; 1 h incubation; means ± SEM (n = 3)
# pIC50: negative log10 of molar concentration; output just the value

Some solved entries appear below for comparison.
{"COMPOUND": "Cc1ccc2c(c1)c1c(n2CCC(=O)N2c3ccc(N(C)C)cc3Sc3cc(N(C)C)ccc32)CCCCCC1 [Compound 4n]", "MEASURED_METRIC": "pIC50", "EXPERIMENTAL_VALUE": 4.83}
{"COMPOUND": "CC1CCc2c(c3cc(OC(F)(F)F)ccc3n2CCC(=O)N2c3ccc(N(C)C)cc3Sc3cc(N(C)C)ccc32)C1 (stereo not shown) [Compound 4i]", "MEASURED_METRIC": "pIC50", "EXPERIMENTAL_VALUE": 4.76}
{"COMPOUND": "CN(C)c1ccc2c(c1)Sc1cc(N(C)C)ccc1N2C(=O)CCn1c2c(c3cc(F)ccc31)CCCC2 [Compound 4f]", "MEASURED_METRIC": "pIC50", "EXPERIMENTAL_VALUE": 4.57}
{"COMPOUND": "CN(C)c1ccc2c(c1)Sc1cc(N(C)C)ccc1N2C(=O)CCn1c2c(c3ccccc31)CCCCC2 [Compound 4j]", "MEASURED_METRIC": "pIC50", "EXPERIMENTAL_VALUE": 4.79}

Reported pIC50, compound CN(C)c1ccc2c(c1)Sc1cc(N(C)C)ccc1N2C(=O)CCn1c2c(c3cc(OC(F)(F)F)ccc31)CCCCC2 [Compound 4l] : ____
4.68

Need pIC50 of CN(C)c1ccc2c(c1)Sc1cc(N(C)C)ccc1N2C(=O)CCn1c2c(c3cc(OC(F)(F)F)ccc31)CCCC2 [Compound 4h] , thanks.
4.75

If you can, please state the reported pIC50 value of Cc1ccc2c(c1)c1c(n2CCC(=O)N2c3ccc(N(C)C)cc3Sc3cc(N(C)C)ccc32)CCCCC1 [Compound 4k] .
4.81

* * *

Observed IC50 for human erythrocyte AChE (Homo sapiens), reported per entry below.
Entry rule: numbers only, all in µM.

As a guide, the following entries are already answered.
{"COMPOUND": "Cc1ccc2c(c1)c1c(n2CCC(=O)N2c3ccc(N(C)C)cc3Sc3cc(N(C)C)ccc32)CCCCC1", "SYSTEM_NAME": "human erythrocyte AChE (Homo sapiens)", "EXPERIMENTAL_VALUE": 12.9}
{"COMPOUND": "COc1ccc2c(c1)c1c(n2CCC(=O)N2c3ccc(N(C)C)cc3Sc3cc(N(C)C)ccc32)CCCC1", "SYSTEM_NAME": "human erythrocyte AChE (Homo sapiens)", "EXPERIMENTAL_VALUE": 10.5}
{"COMPOUND": "Cc1ccc2c(c1)c1c(n2CCC(=O)N2c3ccc(N(C)C)cc3Sc3cc(N(C)C)ccc32)CCCC1", "SYSTEM_NAME": "human erythrocyte AChE (Homo sapiens)", "EXPERIMENTAL_VALUE": 4.39}
{"COMPOUND": "CC1CCc2c(c3cc(OC(F)(F)F)ccc3n2CCC(=O)N2c3ccc(N(C)C)cc3Sc3cc(N(C)C)ccc32)C1 (stereo not drawn)", "SYSTEM_NAME": "human erythrocyte AChE (Homo sapiens)", "EXPERIMENTAL_VALUE": 1.94}
{"COMPOUND": "CN(C)c1ccc2c(c1)Sc1cc(N(C)C)ccc1N2C(=O)CCn1c2c(c3cc(OC(F)(F)F)ccc31)CCCCC2", "SYSTEM_NAME": "human erythrocyte AChE (Homo sapiens)", "EXPERIMENTAL_VALUE": 15}
{"COMPOUND": "CN(C)c1ccc2c(c1)Sc1cc(N(C)C)ccc1N2C(=O)CCn1c2c(c3ccccc31)CCCCCC2", "SYSTEM_NAME": "human erythrocyte AChE (Homo sapiens)", "EXPERIMENTAL_VALUE": 2.98}
{"COMPOUND": "CN(C)c1ccc2c(c1)Sc1cc(N(C)C)ccc1N2 [MBH2, reference compound]", "SYSTEM_NAME": "human erythrocyte AChE (Homo sapiens)", "EXPERIMENTAL_VALUE": 1.76}
{"COMPOUND": "CN(C)c1ccc2c(c1)Sc1cc(N(C)C)ccc1N2C(=O)CCn1c2c(c3cc(OC(F)(F)F)ccc31)CCCC2", "SYSTEM_NAME": "human erythrocyte AChE (Homo sapiens)", "EXPERIMENTAL_VALUE": 6.89}

# query: IC50 | item CN(C)c1ccc2c(c1)Sc1cc(N(C)C)ccc1N2C(=O)CCn1c2c(c3cc(F)ccc31)CCCC2 | system: human erythrocyte AChE (Homo sapiens)
6.57

Give the reported IC50 for CN(C)c1ccc2c(c1)Sc1cc(N(C)C)ccc1N2C(=O)CCn1c2c(c3ccccc31)CCCC2 (system: human erythrocyte AChE (Homo sapiens)).
Sequence (P22303 32-617 isoform P22303-2 limits assumed): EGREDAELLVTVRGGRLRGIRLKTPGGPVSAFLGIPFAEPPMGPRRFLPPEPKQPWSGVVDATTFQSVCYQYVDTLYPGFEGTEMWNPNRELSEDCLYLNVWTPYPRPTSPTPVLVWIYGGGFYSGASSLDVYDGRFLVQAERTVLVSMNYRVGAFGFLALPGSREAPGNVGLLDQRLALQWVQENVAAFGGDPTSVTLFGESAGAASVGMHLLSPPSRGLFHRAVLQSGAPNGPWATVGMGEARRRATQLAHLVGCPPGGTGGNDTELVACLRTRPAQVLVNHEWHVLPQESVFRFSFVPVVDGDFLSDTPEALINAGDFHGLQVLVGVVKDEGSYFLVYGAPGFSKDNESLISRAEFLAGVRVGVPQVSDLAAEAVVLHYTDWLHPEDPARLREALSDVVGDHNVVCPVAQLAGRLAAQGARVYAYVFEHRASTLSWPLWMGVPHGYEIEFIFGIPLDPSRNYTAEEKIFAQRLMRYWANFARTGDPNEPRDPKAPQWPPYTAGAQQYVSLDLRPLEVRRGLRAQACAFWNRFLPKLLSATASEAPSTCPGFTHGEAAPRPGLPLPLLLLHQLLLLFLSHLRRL
12.3

Form field: IC50 recorded for CC1CCc2c(c3cc(C(F)(F)F)ccc3n2CCC(=O)N2c3ccc(N(C)C)cc3Sc3cc(N(C)C)ccc32)C1 (stereo not drawn) with human erythrocyte AChE (Homo sapiens) (enter value)
3.56

Notebook: pull reported IC50 for human erythrocyte AChE (Homo sapiens), entry Cc1ccc2c(c1)c1c(n2CCC(=O)N2c3ccc(N(C)C)cc3Sc3cc(N(C)C)ccc32)CCCCCC1
6.26

Hello, I am looking for reported IC50 with human erythrocyte AChE (Homo sapiens) for CN(C)c1ccc2c(c1)Sc1cc(N(C)C)ccc1N2C(=O)CCn1c2c(c3ccccc31)CCCCC2 . Could you help?
10.7

Kindly state the measured IC50 obtained for COc1ccc2c(c1)c1c(n2CCC(=O)N2c3ccc(N(C)C)cc3Sc3cc(N(C)C)ccc32)CCC(C)C1 (stereo not drawn) with human erythrocyte AChE (Homo sapiens).
9.81

What measured IC50 is associated with CN(C)c1ccc2c(c1)Sc1cc(N(C)C)ccc1N2C(=O)CCn1c2c(c3ccccc31)CCC2 on human erythrocyte AChE (Homo sapiens)?
11.1

Taken from paper PMC9697446.
